Attribution: ChEMBL document CHEMBL4364331

I'd appreciate it if you could supply pEC50 values for the items below.
Target: Cannabinoid receptor 1 (Homo sapiens)
Sequence (P21554 whole entry): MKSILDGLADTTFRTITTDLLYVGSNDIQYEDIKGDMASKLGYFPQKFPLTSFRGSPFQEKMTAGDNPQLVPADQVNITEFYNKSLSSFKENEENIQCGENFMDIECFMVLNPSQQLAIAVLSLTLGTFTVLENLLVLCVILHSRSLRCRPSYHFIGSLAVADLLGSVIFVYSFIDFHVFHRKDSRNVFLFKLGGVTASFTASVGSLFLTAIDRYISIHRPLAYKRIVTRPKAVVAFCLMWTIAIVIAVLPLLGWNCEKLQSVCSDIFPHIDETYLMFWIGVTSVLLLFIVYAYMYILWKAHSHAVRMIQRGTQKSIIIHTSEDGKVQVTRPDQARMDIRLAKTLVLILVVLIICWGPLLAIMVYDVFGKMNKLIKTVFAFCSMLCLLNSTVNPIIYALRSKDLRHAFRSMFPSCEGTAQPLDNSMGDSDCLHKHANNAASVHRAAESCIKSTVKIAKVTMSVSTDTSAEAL
Test: Positive allosteric modulatory activity at human CB1R expressed in CHO-K1 cells assessed as CP55940-induced cAMP level by hit-hunter cAMP assay
pEC50: −log10 of the molar value.

For the compound shown here, O=[N+]([O-])CC(c1ccccc1)c1c[nH]c2ccccc12 (configuration not stated) , give the reported pEC50. < 5.00

For the compound shown here, O=[N+]([O-])CC(c1ccccc1)c1cc[nH]c1-c1ccccc1 (configuration not stated) , give the reported pEC50. < 5.00

For the compound shown here, Cn1c(-c2ccccc2)c(C(C[N+](=O)[O-])c2ccccc2)c2ccccc21 (configuration not stated) , give the reported pEC50. < 5.00

For the compound shown here, O=[N+]([O-])CC(c1ccccc1)c1cn(-c2ccccc2)c2ccccc12 (configuration not stated) , give the reported pEC50. < 5.00

For the compound shown here, O=[N+]([O-])CC(c1ccccc1)c1c(C2CCCCC2)[nH]c2ccccc12 (configuration not stated) , give the reported pEC50. 6.00

For the compound shown here, NCC(c1ccccc1)c1c(-c2ccccc2)[nH]c2ccccc12 (configuration not stated) , give the reported pEC50. < 5.00

For the compound shown here, O=[N+]([O-])CCc1c(-c2ccccc2)[nH]c2ccccc12 , give the reported pEC50. 5.26
